target: UniProt P10635
Sequence (P10635 whole entry): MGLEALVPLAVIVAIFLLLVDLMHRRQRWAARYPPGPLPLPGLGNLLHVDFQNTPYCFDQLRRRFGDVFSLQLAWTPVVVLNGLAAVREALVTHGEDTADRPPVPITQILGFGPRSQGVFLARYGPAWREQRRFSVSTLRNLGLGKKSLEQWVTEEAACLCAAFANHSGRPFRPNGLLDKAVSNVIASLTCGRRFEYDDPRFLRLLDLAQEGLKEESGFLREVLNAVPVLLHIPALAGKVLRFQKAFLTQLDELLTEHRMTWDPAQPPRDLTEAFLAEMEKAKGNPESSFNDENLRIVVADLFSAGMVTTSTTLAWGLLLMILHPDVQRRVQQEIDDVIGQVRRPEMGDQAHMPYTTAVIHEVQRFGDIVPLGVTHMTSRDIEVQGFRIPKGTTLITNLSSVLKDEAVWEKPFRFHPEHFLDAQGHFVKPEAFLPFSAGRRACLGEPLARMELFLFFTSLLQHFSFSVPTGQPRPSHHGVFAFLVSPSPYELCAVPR

{"columns": ["smiles_repr", "IC50"],
 "data": [
  ["O=C(Nc1cnccn1)N1CCC(=Cc2cccc(Oc3ccc(C(F)(F)F)cn3)c2)CC1", "25.1 µM"],
  ["Cc1ccc(NC(=O)N2CCC(=Cc3cccc(Oc4ccc(C(F)(F)F)cn4)c3)CC2)cn1", "1.6 µM"]
]}

====

molecular target: Fatty-acid amide hydrolase 1 (Rattus norvegicus); assay: Irreversible inhibition of His-tagged rat FAAH N-terminal transmembrane-deleted truncated form expressed in Escherichia coli preincubated for 60 mins before oleamide substrate addition
Sequence (P97612 whole entry, the tested form may be a part): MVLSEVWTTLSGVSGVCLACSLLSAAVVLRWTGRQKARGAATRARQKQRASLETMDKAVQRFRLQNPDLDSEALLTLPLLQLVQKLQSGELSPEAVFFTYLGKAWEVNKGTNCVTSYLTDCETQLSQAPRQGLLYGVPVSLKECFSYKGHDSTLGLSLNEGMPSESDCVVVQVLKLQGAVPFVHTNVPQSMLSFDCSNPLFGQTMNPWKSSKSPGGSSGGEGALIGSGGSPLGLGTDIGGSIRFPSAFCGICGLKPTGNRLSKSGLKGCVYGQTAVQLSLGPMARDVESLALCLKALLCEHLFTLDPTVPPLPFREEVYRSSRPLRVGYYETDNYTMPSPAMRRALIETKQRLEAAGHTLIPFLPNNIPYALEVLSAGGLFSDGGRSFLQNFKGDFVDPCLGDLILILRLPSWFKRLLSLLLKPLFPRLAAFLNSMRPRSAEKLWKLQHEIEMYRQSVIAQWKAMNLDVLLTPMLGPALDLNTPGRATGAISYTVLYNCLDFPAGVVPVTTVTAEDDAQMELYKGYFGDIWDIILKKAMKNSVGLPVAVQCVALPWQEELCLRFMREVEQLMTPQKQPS

{"columns": ["smiles_repr", "unit_descriptor", "IC50"],
 "data": [
  ["O=C(Nc1cccnn1)N1CCC(=Cc2cccc(Oc3ccc(C(F)(F)F)cn3)c2)CC1", "nM", 7.4]
]}
